# System: OVCAR-3
# experiment: Growth inhibition, SRB assay, OVCAR-3
# Assay type: cell-based, human
# condition: Homo sapiens, OVCAR-3, 48 h, OVCAR-3, wild-type BRCA1/2, 48 hours
outcome.measure: pIC50
# reply with the number alone; pIC50 is -log10 of concentration in mol/L

* O=C(c1cc(Cc2n[nH]c(=O)c3ccccc23)ccc1F)N1CCN(C(=O)C2CC2)CC1 [Olaparib, olaparib, reference compound] | 4.38

Here is another compound to look at.
Noted for `CC[C@H]1CN(C)C2Cc3c([nH]c4ccccc34)/C(=N/Nc3ccc(Br)cn3)C[C@@H]1[C@@H]2C(=O)OC` : its pIC50 reads 4.86
